Cmax values by entry
- test.name: Cmax in rat at 10 mg/kg, po measured up to 24 hrs by LC-MS/MS analysis
- Type: ADME, organism-based
- Design: dose 10 mg/kg, route oral
- assay.context: in vivo
Your answer is read as µM, so omit the unit and give the number.

COC(=O)N[C@H](C(=O)N1CCC[C@H]1c1nc(Cl)c(-c2ccc3c(c2)OCC(C)(C)COc2cc(-c4[nH]c([C@@H]5CCCN5C(=O)[C@@H](NC(=O)OC)C(C)C)nc4Cl)ccc2-3)[nH]1)C(C)C 0.5

Please examine the following record next.
### Prompt Let me know recorded Cmax for COC(=O)N[C@H](C(=O)N1CCC[C@H]1c1ncc(-c2ccc3c(c2)OCC(C)(C)COc2cc(-c4cnc([C@@H]5CCCN5C(=O)[C@@H](NC(=O)OC)C(C)C)[nH]4)ccc2-3)[nH]1)C(C)C , thanks.
### Response 1.9

---

inhibition at 72 h, 10 µM values by entry
- test.name: Cytotoxicity in human HEK293 cells assessed as inhibition of cell growth at 10 uM incubated for 72 hrs by CCK8 assay relative to control
- Assay type: cell-based
- assay.context: read-out: GI
Your answer is read as %, so omit the unit and give the number.

The cases that follow already have their inhibition at 72 h, 10 µM on record.
COC(=O)N[C@H](C(=O)N1CCC[C@H]1c1ncc(-c2ccc3c(ccc4cc(-c5cnc([C@@H]6CCCN6C(=O)[C@@H](NC(=O)OC)C(C)C)[nH]5)sc43)c2)[nH]1)C(C)C 36
COC(=O)N[C@H](C(=O)N1CCC[C@H]1c1ncc(-c2ccc3c(c2)OCC(C)(C)COc2cc(-c4cnc([C@@H]5CCCN5C(=O)[C@@H](NC(=O)OC)C(C)C)[nH]4)ccc2-3)[nH]1)C(C)C 33
COC(=O)N[C@H](C(=O)N1CCC[C@H]1c1ncc(-c2ccc3c(c2)CCc2cc(-c4cnc([C@@H]5CCCN5C(=O)[C@@H](NC(=O)OC)C(C)C)[nH]4)sc2-3)[nH]1)C(C)C 28
COC(=O)N[C@H](C(=O)N1CCC[C@H]1c1ncc(-c2ccc3c(c2)OCc2cc(-c4cnc([C@@H]5CCCN5C(=O)[C@@H](NC(=O)OC)C(C)C)[nH]4)sc2-3)[nH]1)C(C)C 22

Please examine the following record next.
### Prompt Let me know recorded inhibition at 72 h, 10 µM for COC(=O)N[C@H](C(=O)N1CCC[C@H]1c1nc(Cl)c(-c2ccc3c(c2)OCC(C)(C)COc2cc(-c4[nH]c([C@@H]5CCCN5C(=O)[C@@H](NC(=O)OC)C(C)C)nc4Cl)ccc2-3)[nH]1)C(C)C , thanks.
### Response 63

---

- test.name: Half life in beagle dog at 1 mg/kg, iv measured up to 24 hrs by LC-MS/MS analysis
- Assay type: ADME, organism-based, Canis lupus familiaris
- assay.context: in vivo
property.name: half-life (min)
Your answer is read as min, so omit the unit and give the number.

COC(=O)N[C@H](C(=O)N1CCC[C@H]1c1ncc(-c2ccc3c(ccc4cc(-c5cnc([C@@H]6CCCN6C(=O)[C@@H](NC(=O)OC)C(C)C)[nH]5)sc43)c2)[nH]1)C(C)C 240

### Prompt Let me know recorded half-life for COC(=O)N[C@H](C(=O)N1CCC[C@H]1c1ncc(-c2ccc3c(c2)OCc2cc(-c4cnc([C@@H]5CCCN5C(=O)[C@@H](NC(=O)OC)C(C)C)[nH]4)sc2-3)[nH]1)C(C)C , thanks.
### Response 180

### Prompt Let me know recorded half-life for COC(=O)N[C@H](C(=O)N1CCC[C@H]1c1ncc(-c2ccc3c(c2)CCc2cc(-c4cnc([C@@H]5CCCN5C(=O)[C@@H](NC(=O)OC)C(C)C)[nH]4)sc2-3)[nH]1)C(C)C , thanks.
### Response 240
